As shown below, each of these compounds has a reported logP value.
valueKind: logP

> print(dat)
                    compoundstructurestring  valuekind  observed
1  C[C@@H]1CC2=CC(=O)CC[C@@H]2[C@H]2CC[C@@]3(C)[C@@H](CC[C@]3(C)O)[C@@H]21       logP      3.19
2  C[C@@H]1C[C@@]2(C)[C@@H](CC[C@@H]3[C@@H]2CC[C@]2(C)[C@@H](O)CC[C@@H]32)CC1=O       logP      3.99
3  CO[C@H]1CC[C@H]2[C@@H]3CC[C@H]4CC(=O)[C@H](C)C[C@]4(C)[C@H]3CC[C@]12C       logP      5.43
